- assay system: Human-CD73 enzyme (Homo sapiens (Human))
- Sequence (P21589 27-574): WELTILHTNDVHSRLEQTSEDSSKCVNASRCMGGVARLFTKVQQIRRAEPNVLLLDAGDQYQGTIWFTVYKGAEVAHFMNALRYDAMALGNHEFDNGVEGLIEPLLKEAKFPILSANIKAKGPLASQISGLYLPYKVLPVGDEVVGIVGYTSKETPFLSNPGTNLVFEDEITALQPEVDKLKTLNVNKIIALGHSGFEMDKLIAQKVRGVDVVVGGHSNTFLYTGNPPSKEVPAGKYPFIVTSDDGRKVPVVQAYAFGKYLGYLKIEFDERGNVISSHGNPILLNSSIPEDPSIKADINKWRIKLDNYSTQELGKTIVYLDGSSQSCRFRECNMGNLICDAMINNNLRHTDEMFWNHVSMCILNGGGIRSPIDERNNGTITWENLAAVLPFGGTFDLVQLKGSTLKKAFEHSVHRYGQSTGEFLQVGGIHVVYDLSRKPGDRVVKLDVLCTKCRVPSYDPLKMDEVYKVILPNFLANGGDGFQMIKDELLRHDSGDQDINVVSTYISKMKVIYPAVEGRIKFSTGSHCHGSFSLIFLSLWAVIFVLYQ
- protocol description: In vitro inhibitory activity to recombinant human CD73 enzyme (ATP-GLO)
- condition context: Human-CD73 0.1 μg/mL, AMP 100 μM
Threshold 30 nM: IC50 strictly smaller gives Criterion met, otherwise Criterion not met.

| molecule | classification |
| --- | --- |
| O=c1[nH]cc(-c2cc([C@H]3C[C@@H]3CC(F)(F)F)c(Cl)nn2)c(=O)[nH]1 | Criterion met |
| COC[C@H]1C[C@@H]1c1cc(-c2c[nH]c(=O)[nH]c2=O)nnc1Cl | Criterion met |

[ask] Lab note: confirm whether the reported IC50 for this molecule is below 30 nM, equality not counting. molecule: "O=c1[nH]cc(-c2cc([C@@H]3C[C@H]3CC(F)F)c(Cl)nn2)c(=O)[nH]1"
[reply] Criterion not met

[ask] Lab note: confirm whether the reported IC50 for this molecule is below 30 nM, equality not counting. molecule: "N#Cc1nnc(-c2c[nH]c(=O)[nH]c2=O)cc1[C@H]1C[C@@H]1C(F)(F)F"
[reply] Criterion not met

[ask] Lab note: confirm whether the reported IC50 for this molecule is below 30 nM, equality not counting. molecule: Cc1nnc(-c2c[nH]c(=O)[nH]c2=O)cc1[C@H]1C[C@@H]1C(F)F [Reference compound 1, reference compound]
[reply] Criterion met

[ask] Lab note: confirm whether the reported IC50 for this molecule is below 30 nM, equality not counting. molecule: "O=c1[nH]cc(-c2cc([C@@H]3C[C@H]3CC(F)(F)F)c(Cl)nn2)c(=O)[nH]1"
[reply] Criterion not met

[ask] Lab note: confirm whether the reported IC50 for this molecule is below 30 nM, equality not counting. molecule: "Cc1nnc(-c2c[nH]c(=O)[nH]c2=O)cc1[C@H]1C[C@@H]1C(F)(F)F"
[reply] Criterion not met

[ask] Lab note: confirm whether the reported IC50 for this molecule is below 30 nM, equality not counting. molecule: "O=c1[nH]cc(-c2cc([C@@H]3C[C@H]3CF)c(Cl)nn2)c(=O)[nH]1"
[reply] Criterion met
